testMethodNotes: pH-solubility of cariprazine hydrochloride at 37° C.
Assay type: physicochemical
appliedConditions: 37 °C, pH 4, aqueous buffer, pH 4, read-out: Solubility
Source text: Cariprazine salts are very well soluble in acidic environment. However, drugs, which are soluble in acidic environment can be practically insoluble in neutral or basic environment.
Structures can show the parent of a compound that is named as a salt.
resultType: solubility (µg/mL)
Field: numeric (µg/mL). Do not append units.

stdin: Quick one: give measured solubility for CN(C)C(=O)N[C@H]1CC[C@H](CCN2CCN(c3cccc(Cl)c3Cl)CC2)CC1 [cariprazine hydrochloride]
stdout: 3230

---

testMethodNotes: pH-solubility of cariprazine hydrochloride at 37° C.
Assay type: physicochemical
appliedConditions: 37 °C, pH 5, aqueous buffer, pH 5, read-out: Solubility
Counter-ions that a name gives are not always drawn.
resultType: solubility (µg/mL)
Field: numeric (µg/mL). Do not append units.

stdin: Quick one: give measured solubility for CN(C)C(=O)N[C@H]1CC[C@H](CCN2CCN(c3cccc(Cl)c3Cl)CC2)CC1 [cariprazine hydrochloride]
stdout: 351

---

testMethodNotes: pH-solubility of cariprazine hydrochloride at 37° C.
Assay type: physicochemical
appliedConditions: 37 °C, pH 2, simulated gastric fluid, pH 2, read-out: Solubility
Where a name gives a salt, the structure may show the parent alone.
resultType: solubility
Your reply should be a number followed by the unit it is expressed in.

stdin: Quick one: give measured solubility for CN(C)C(=O)N[C@H]1CC[C@H](CCN2CCN(c3cccc(Cl)c3Cl)CC2)CC1 [cariprazine hydrochloride]
stdout: 8930 µg/mL

---

testMethodNotes: pH-solubility of cariprazine hydrochloride at 37° C.
Assay type: physicochemical
appliedConditions: 37 °C, pH 5.5, aqueous buffer, pH 5.5, read-out: Solubility
Where a name gives a salt, the structure may show the parent alone.
resultType: solubility

stdin: Quick one: give measured solubility for CN(C)C(=O)N[C@H]1CC[C@H](CCN2CCN(c3cccc(Cl)c3Cl)CC2)CC1 [cariprazine hydrochloride]
stdout: 149 µg/mL

---

testMethodNotes: pH-solubility of cariprazine hydrochloride at 37° C.
Assay type: physicochemical
appliedConditions: 37 °C, pH 3, aqueous buffer, pH 3, read-out: Solubility
Structures can show the parent of a compound that is named as a salt.
resultType: solubility (mg/mL)
Field: numeric (mg/mL). Do not append units.

stdin: Quick one: give measured solubility for CN(C)C(=O)N[C@H]1CC[C@H](CCN2CCN(c3cccc(Cl)c3Cl)CC2)CC1 [cariprazine hydrochloride]
stdout: 11
